Provenance of the data: patent US20240158446A1

- TESTED_SYSTEM: GDP-bound KRAS wild-type protein (Homo sapiens, UniProt P01116)
- Sequence (P01116 whole entry): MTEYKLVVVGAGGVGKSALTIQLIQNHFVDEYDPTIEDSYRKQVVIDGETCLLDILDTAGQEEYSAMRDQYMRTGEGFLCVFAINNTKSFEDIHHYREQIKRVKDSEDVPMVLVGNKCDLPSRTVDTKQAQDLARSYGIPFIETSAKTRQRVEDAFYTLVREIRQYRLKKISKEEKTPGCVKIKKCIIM
- TEST_PROTOCOL: Binding to KRAS by surface plasmon resonance (SPR), Single Cycle Kinetics
- TEST_PARAMETERS: SPR, Single Cycle Kinetics, GDP-bound KRAS wild-type protein; read-out: KRAS KD
pKd: −log10 of the molar value. *1 amine or outer side, *2 acyl side, *3 side chain or, on linkers, in order; H or OH if unused. Where a SMILES comes first, the peptide text is derived from it. Bridges are numbered along the chain shown (N, C = ends). [ ]: non-standard residue; d: D form. The star is where a group is joined. hPhe(3-Cl-4-CF3) = N[C@@H](CCc1ccc(C(F)(F)F)c(Cl)c1)C(=O)O; NPrPhe(4-CF3) = CCCN[C@@H](Cc1ccc(C(F)(F)F)cc1)C(=O)O; NEtAsp = CCN([C@@H](CC(=O)[*:3])C(=O)[*:2])[*:1]; NMeGly(cPent) = CN[C@H](C(=O)O)C1CCCC1; NMeNva = CCC[C@H](NC)C(=O)O; Morpholide = C1CN(*)CCO1; NMeA = CN[C@@H](C)C(=O)O; Aze = O=C(O)[C@@H]1CCN1; Ac4c = NC1(C(=O)O)CCC1; Sar = CNCC(=O)O
MEASURED_PARAMETER: pKd

>>> reported("CCO[C@@H]1C[C@H]2C(=O)NC3(CC(C)(C)C3)C(=O)N(C)[C@@H](C3CCCC3)C(=O)N(CC)[C@H](C(=O)N(C)C)CC(=O)N(C)[C@@H](CC(C)C)C(=O)N[C@@H]([C@@H](C)CC)C(=O)NCC(=O)N(C)[C@H]3C/C=C\\CCN(C3=O)[C@@H](Cc3ccc(C(F)(F)F)cc3)C(=O)N(C)CC(=O)N[C@@H](CCc3cc(F)c(C(F)(F)F)c(F)c3)C(=O)N2C1 [PP1773]")
9.28
>>> reported("CCO[C@@H]1C[C@H]2C(=O)NC3(CCC3)C(=O)N(C)[C@@H](C3CCCC3)C(=O)N(C)[C@H](C(=O)N(C)C)CC(=O)N(C)[C@@H](CC)C(=O)N[C@@H]([C@@H](C)CC)C(=O)N(C)CC(=O)N(C)[C@H]3C[C@H]4C[C@H]4CN(C3=O)[C@@H](Cc3ccc(C(F)(F)F)cc3)C(=O)N(C)CC(=O)N[C@@H](CCc3cc(F)c(C(F)(F)F)c(F)c3)C(=O)N2C1 [PP0830]")
10.24
>>> reported("CCC[C@H]1C(=O)N[C@@H]([C@@H](C)CC)C(=O)N(C)[C@@H](C)C(=O)N2CC[C@H]2C(=O)N(CCC)[C@@H](Cc2ccc(C(F)(F)F)cc2)C(=O)N(C)CC(=O)N[C@@H](CCc2ccc(C(F)(F)F)c(Cl)c2)C(=O)N2CCC[C@H]2C(=O)NC2(CCC2)C(=O)N(C)[C@@H](C2CCCC2)C(=O)N(CC)[C@H](C(=O)N2CCOCC2)CC(=O)N1C [PP1955] ([NMeNva]I[NMeA][Aze][NPrPhe(4-CF3)][Sar][hPhe(3-Cl-4-CF3)]P[Ac4c][NMeGly(cPent)][NEtAsp]-Morpholide; lactam N-11)")
9.09
